Tested on: LPS-treated rats
Test: Survival in a rat model for disseminated intravascular coagulation
Format: in vivo
Condition: rats, 30 mg/kg LPS i.v.; 0.75 mg/kg bolus + infusion; 7 hours
Non-standard residues stand in square brackets, D forms with d. Residues, ends and D or L forms follow the SMILES beside them. dNMeChg = CN[C@@H](C(=O)O)C1CCCCC1; Aze = O=C(O)[C@@H]1CCN1
Recorded endpoint: Survival rate % (%)
Answers are plain numbers, in %.

Solved cases (4 shown):
## Input Consider the molecule `N=C(N)NCCC[C@@H](C=O)NC(=O)[C@@H]1CCCN1C(=O)[C@H](O)CC1CCCCCC1` and give its measured Survival rate %.
## Output 100

## Input Consider the molecule CN[C@H](Cc1ccccc1)C(=O)N1CCC[C@H]1C(=O)N[C@H](C=O)CCCN=C(N)N [C, D-MePhe-Pro-Arg-H, reference compound] and give its measured Survival rate %.
## Output 33

## Input Consider the molecule `CCOC(=O)N[C@H](CC1CCCCCC1)C(=O)N1CCC[C@H]1C(=O)N[C@H](C=O)CCCNC(=N)N` and give its measured Survival rate %.
## Output 90

## Input Consider the molecule CN[C@@H](C(=O)N1CC[C@H]1C(=O)N[C@H](C=O)CCCNC(=N)N)C1CCCCC1 [Compound 4] (H-[dNMeChg]-[Aze]-Arg-aldehyde) and give its measured Survival rate %.
## Output 92

Below: the item to evaluate.
## Input Consider the molecule `CN[C@H](CC1CCCCCC1)C(=O)N1CCC[C@H]1C(=O)N[C@H](C=O)CCCNC(=N)N` and give its measured Survival rate %.
## Output 57
